tested on: KM12 colon; test: NCI tumour cell line growth inhibition, 48 h
Consider the following compounds; for each one, report its GI50.

# input Fill in GI50 for record CN(c1ccc(C#N)c(Cl)c1)C1CCC(NC(=O)c2ccc(N3CCN(C4CN(c5ccc6c(c5)C(=O)N(C5CCC(=O)NC5=O)C6=O)C4)CC3)cc2)CC1 (centres undefined)
# output > 100000 nM

# input Fill in GI50 for record O=S(=O)(NC1=NCCN1C(=S)SN1CCn2c1nsc2=S)c1cccc(OC(F)(F)F)c1
# output 10300 nM

# input Fill in GI50 for record N/C(=N\c1nc2ccccc2s1)NC(=NC1CCCCC1)NC1CCCCC1
# output 1940 nM

# input Fill in GI50 for record CCOC(=O)C1=C(C)N2C(=NC3=C(CCC/C3=C\c3ccc(Cl)cc3)C2c2ccc(Cl)cc2)S1 (centres undefined)
# output 1930 nM

---

tested on: HS 578T breast; experiment: NCI tumour cell line growth inhibition, 48 h
quantity: TGI

# input Fill in TGI for record CCOC(=O)/C(C#N)=C(/NNc1ccccc1)c1ccncc1C(=O)O
# output > 100 µM

# input Fill in TGI for record Cc1ccc(Sc2oc(-c3ccc(C)cc3)nc2[P+](c2ccccc2)(c2ccccc2)c2ccccc2)cc1
# output 1.98 µM

# input Fill in TGI for record O=C1c2ccccc2-c2nc(-c3ccccc3)cc3c2c1nc1ccccc13
# output 63.9 µM

# input Fill in TGI for record COc1ccc(-c2ccc(/C=N/n3c(COc4ccccc4Cl)n[nH]c3=S)o2)c([N+](=O)[O-])c1
# output 98.7 µM

# input Fill in TGI for record COc1cccc(CC(C)=C(c2ccc(OCCCN(C)C)cc2)c2ccc(OCCCN(C)C)cc2)c1
# output 1.34 µM

# input Fill in TGI for record c1csc(-c2csc(-c3ccsc3)c2)c1
# output > 100 µM

# input Fill in TGI for record COc1ccc2c(-c3ccc(OCCN(C)C)cc3)c(Oc3ccc(Cl)cc3)c(=O)oc2c1
# output > 54.6 µM

# input Fill in TGI for record Nc1ccc(-c2nc3ccc(F)cc3s2)cc1
# output > 100 µM

# input Fill in TGI for record CN(c1ccc(C#N)c(Cl)c1)C1CCC(NC(=O)c2ccc(N3CCN(C4CN(c5ccc6c(c5)C(=O)N(C5CCC(=O)NC5=O)C6=O)C4)CC3)cc2)CC1 (stereo not given)
# output > 100 µM

# input Fill in TGI for record Cn1c2c(c3ccccc31)CCN1C(=O)C3SC21C1C(=O)N(c2ccccc2)C(=O)C31 (stereo not given)
# output > 100 µM

# input Fill in TGI for record Cc1cc(S(=O)(=O)Nc2nc3ccccc3n2-c2ccccc2)c(S)cc1Cl
# output > 100 µM

# input Fill in TGI for record COc1cc([C@H]2Oc3c(OC)cc(CCCO)cc3[C@@H]2CO)ccc1O
# output > 100 µM

# input Fill in TGI for record Cc1nn(C(=O)c2ccncc2)c2c1C(c1cccc([N+](=O)[O-])c1)SC(N)=N2 (stereo not given)
# output > 10 µM

# input Fill in TGI for record CC(=O)O[C@H]1CN(S(=O)(=O)c2ccc(C)cc2)C[C@@H]1C1CCCCC1
# output 37.8 µM

# input Fill in TGI for record NS(=O)(=O)c1cccc(-c2ccc3c(NC(=O)C4CC4)n[nH]c3c2)c1
# output > 25 µM

# input Fill in TGI for record CC(C)C(C/C=C1/CC(CO)(COC(=O)C2CCCCC2)OC1=O)C(C)C (stereo not given)
# output 43.5 µM

# input Fill in TGI for record CC(=O)OC(C)C(OC(C)=O)C(OC(C)=O)C(/C=C/C1CC=CC(=O)O1)OC(C)=O (stereo not given)
# output 33.1 µM

# input Fill in TGI for record N#CC12C(=O)N3C(=NC(c4ccccc4)NC3c3ccccc3)C1(C#N)C(c1ccccc1)NC1=C2CCCC1 (stereo not given)
# output > 100 µM

# input Fill in TGI for record CNC(=S)N/N=C(\C)c1nc2ncccc2[nH]1
# output > 84.3 µM

# input Fill in TGI for record CN1CCN(c2cc3nc4ccccc4n(-c4ccc(Cl)cc4)c-3cc2=N)CC1
# output 95.7 µM
